Please respond with reported Population Apoptotic (%) for every item in the list.
tested on: Fibroblast; assay: Multiplex assay against human fibroblast; type: toxicity, cell-based; conditions: 24 h, 10 µM, compound concentration 10 uM, replicate 2
The reply should be a number in %, with the unit left off.

Name the recorded Population Apoptotic (%) for "Cc1ccc(C(=O)Nc2cccc(C(F)(F)F)c2)cc1Nc1nc(-c2cccnc2)nc2c1cnn2C" .
90

Name the recorded Population Apoptotic (%) for COc1ccc(-c2ccc3c(N4CCOCC4)nc(N4C[C@@H](C)O[C@@H](C)C4)nc3n2)cc1CO [Ku-0063794] .
100

Name the recorded Population Apoptotic (%) for O=C(Nc1ccc(-n2nc(-c3cccnc3)cc2C(F)(F)F)cn1)c1ccc(-c2ccccc2)c(F)c1 [BI 2049] .
0

Name the recorded Population Apoptotic (%) for "CCc1cccc(CC)c1NC(=O)c1nn(C)c2c1CCc1cnc(Nc3ccc(C(=O)NC4CCN(C)CC4)cc3OC(F)(F)F)nc1-2" .
50

Name the recorded Population Apoptotic (%) for CCOc1cc2ncc(C#N)c(Nc3ccc(OCc4ccccn4)c(Cl)c3)c2cc1NC(=O)/C=C/CN(C)C [NERATINIB] .
12

Name the recorded Population Apoptotic (%) for "CCn1c(=O)c(-c2ccc(-c3cncs3)cc2Cl)cc2cnc(Nc3ccc(N4CCN(C)CC4)cc3)nc21" .
27

Name the recorded Population Apoptotic (%) for "Cc1cc(C)c(S(=O)(=O)N(Cc2ccc(-c3cccc(S(C)(=O)=O)c3)cc2)Cc2ccc(C(F)(F)F)o2)c(C)c1" .
14

Name the recorded Population Apoptotic (%) for CCn1cc(-c2ccnc3[nH]c(-c4cccc(CN(C)C)c4)cc23)c(-c2ccc(NC(=O)N(C)C)cc2)n1 [GSK-1070916] .
20

Name the recorded Population Apoptotic (%) for CN1CCC(=C2c3ccccc3CC(=O)c3sccc32)CC1.O=C(O)/C=C/C(=O)O [KETOTIFEN FUMARATE] .
59

Name the recorded Population Apoptotic (%) for "O=C(Nc1ccc(Cl)cc1)Nc1cccc(-c2cccc(N3CCCC3)n2)c1" .
72

Name the recorded Population Apoptotic (%) for COc1cccc2cc(-c3nc([C@H]4CC[C@H](C(=O)O)CC4)n4ncnc(N)c34)[nH]c12 [OSI-027] .
33

Name the recorded Population Apoptotic (%) for Cc1cn(-c2cc(NC(=O)c3ccc(C)c(Nc4nccc(-c5cccnc5)n4)c3)cc(C(F)(F)F)c2)cn1 [NILOTINIB] .
0

Name the recorded Population Apoptotic (%) for O=C(Cc1ccc(-c2ccc(OCCN3CCOCC3)cc2)cn1)NCc1ccccc1 [TIRBANIBULIN] .
66

Name the recorded Population Apoptotic (%) for "CCOc1cc(C(=O)N2CCC(N3CCN(C)CC3)CC2)ccc1Nc1ncc2c(n1)N(C1CCCC1)c1ccccc1C(=O)N2C" .
88

Name the recorded Population Apoptotic (%) for "Cc1ccc2nc(NCCN)c3ncc(C)n3c2c1.O=C(O)C(F)(F)F.O=C(O)C(F)(F)F" .
77

Name the recorded Population Apoptotic (%) for "CNC(=O)c1ccc(Nc2nc(OC3CCCC3)c3c(-c4ccc5nc(C)oc5c4)c[nH]c3n2)c(OC)c1" .
71

Name the recorded Population Apoptotic (%) for "O=C(Nc1cccnn1)N1CCC(=Cc2cccc(Oc3ccc(C(F)(F)F)cn3)c2)CC1" .
33

Name the recorded Population Apoptotic (%) for CCOC(=O)c1c(C)[nH]c2ccc3c(c12)CN1CCc2cc(OC)ccc2C1O3 (centres undefined) .
89

Name the recorded Population Apoptotic (%) for "O=C(Nc1ccc(-c2ccnc(Nc3ccc(N4CCOCC4)cc3)n2)cc1)[C@@H]1CCCN1" .
58

----------
system: Fibroblast; assay: Multiplex assay against human fibroblast; type: toxicity, cell-based; conditions: 24 h, 10 µM, compound concentration 10 uM, replicate 1
# class assignment by measured Population Mitochondria Different-Phenotype (%): LOW: < 3%; MID: ≥ 3% and < 40%; HIGH: ≥ 40%

Band assignment needed for "CNc1cc(Oc2cc(C(=O)Nc3cc(N4CCN(C)CC4)cc(C(F)(F)F)c3)ccc2C)ncn1" please.
HIGH

Band assignment needed for "O=C(Nc1cccnn1)N1CCC(=Cc2cccc(Oc3ccc(C(F)(F)F)cn3)c2)CC1" please.
LOW

Band assignment needed for "CCOc1cc(C(=O)N2CCC(N3CCN(C)CC3)CC2)ccc1Nc1ncc2c(n1)N(C1CCCC1)c1ccccc1C(=O)N2C" please.
HIGH

Band assignment needed for "Cn1nc(C(F)(F)F)cc1-c1cnc(N2CCc3cc(S(=O)(=O)Nc4c(F)cc(Cl)cc4F)cc(N4CCCC4=O)c32)nc1" please.
LOW

Band assignment needed for "C=CCn1c(=O)c2cnc(Nc3ccc(N4CCN(C)CC4)cc3)nc2n1-c1cccc(C(C)(C)O)n1" please.
MID

Band assignment needed for "O=C(Nc1ccc(Cl)cc1)Nc1cccc(-c2cccc(N3CCCC3)n2)c1" please.
MID

Band assignment needed for "CCCS(=O)(=O)c1nc(NC2CC2)cc(-c2ccc3c(ccn3C3CC(C)(C)NC(C)(C)C3)c2)n1" please.
LOW

Band assignment needed for "COc1cc(N2CCN(C)CC2)ccc1Nc1ncc2c(n1)N(C)c1ccccc1C(=O)N2C" please.
HIGH

----------
Please respond with reported Population Hoechst High Intensity Objects (%) for every item in the list.
system: Fibroblast; experiment: Multiplex assay against human fibroblast; assay type: toxicity, cell-based; conditions: 12 h, 10 µM, compound concentration 10 uM, replicate 2
The reply should be a number in %, with the unit left off.

Name the recorded Population Hoechst High Intensity Objects (%) for "COc1cc(N2CCN(C)CC2)ccc1Nc1ncc2c(n1)N(C)c1ccccc1C(=O)N2C" .
5

Name the recorded Population Hoechst High Intensity Objects (%) for "NC(=O)c1cccc(-c2cc(Nc3ccc(OC(F)(F)F)cc3)ncn2)c1" .
39

Name the recorded Population Hoechst High Intensity Objects (%) for "Cc1cc(C)c(S(=O)(=O)N(Cc2ccc(-c3cccc(S(C)(=O)=O)c3)cc2)Cc2ccc(C(F)(F)F)o2)c(C)c1" .
22

Name the recorded Population Hoechst High Intensity Objects (%) for "C=CCn1c(=O)c2cnc(Nc3ccc(N4CCN(C)CC4)cc3)nc2n1-c1cccc(C(C)(C)O)n1" .
41

Name the recorded Population Hoechst High Intensity Objects (%) for "CCCn1c(=O)c2[nH]c(-c3cnn(Cc4cccc(C(F)(F)F)c4)c3)nc2n(CC)c1=O" .
5

Name the recorded Population Hoechst High Intensity Objects (%) for "COc1ccc(S(=O)(=O)N(CCO)c2ccccc2CN(C)C/C=C/c2ccc(Cl)cc2)cc1.O=P(O)(O)O" .
44

Name the recorded Population Hoechst High Intensity Objects (%) for "CCCS(=O)(=O)c1nc(NC2CC2)cc(-c2ccc3c(ccn3C3CC(C)(C)NC(C)(C)C3)c2)n1" .
7

Name the recorded Population Hoechst High Intensity Objects (%) for "Cl.O=c1c2cccn2c2ccccc2n1CCCN1CCC(c2ccc(Cl)cc2)CC1" .
11

Name the recorded Population Hoechst High Intensity Objects (%) for "CCn1c(=O)c(-c2ccc(-c3cncs3)cc2Cl)cc2cnc(Nc3ccc(N4CCN(C)CC4)cc3)nc21" .
4

Name the recorded Population Hoechst High Intensity Objects (%) for "Cc1ccc2nc(NCCN)c3ncc(C)n3c2c1.O=C(O)C(F)(F)F.O=C(O)C(F)(F)F" .
36

Name the recorded Population Hoechst High Intensity Objects (%) for "O=C(Nc1cccnn1)N1CCC(=Cc2cccc(Oc3ccc(C(F)(F)F)cn3)c2)CC1" .
24

Name the recorded Population Hoechst High Intensity Objects (%) for "CNC(=O)c1ccc(Nc2nc(OC3CCCC3)c3c(-c4ccc5nc(C)oc5c4)c[nH]c3n2)c(OC)c1" .
40

----------
tested on: U2OS; assay: Multiplex assay against U2OS; format: toxicity, cell-based; details: human, 24 h, 1 µM, compound concentration 1 uM, replicate 2
observable: Population Hoechst High Intensity Objects (%)
The reply should be a number in %, with the unit left off.

Name the recorded Population Hoechst High Intensity Objects (%) for CN1CCC(=C2c3ccccc3CC(=O)c3sccc32)CC1.O=C(O)/C=C/C(=O)O [KETOTIFEN FUMARATE] .
7

Name the recorded Population Hoechst High Intensity Objects (%) for "Cl.O=c1c2cccn2c2ccccc2n1CCCN1CCC(c2ccc(Cl)cc2)CC1" .
7

Name the recorded Population Hoechst High Intensity Objects (%) for "O=C(Nc1ccc(-n2nc(-c3cccnc3)cc2C(F)(F)F)cn1)c1ccc(-c2ccccc2)c(F)c1" .
7

----------
test system: HEK-293T; assay: Multiplex assay against HEK293T; assay type: toxicity, cell-based; conditions: human, 24 h, 1 µM, compound concentration 1 uM, replicate 1;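 note: share of the cells with healthy nuclei that show this phenotype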
# class assignment by measured Population Tubulin-Different-Phenotype (%): low bracket: < 30%; middle bracket: ≥ 30% and < 70%; high bracket: ≥ 70%

Band assignment needed for "CNC(=O)c1ccc(Nc2nc(OC3CCCC3)c3c(-c4ccc5nc(C)oc5c4)c[nH]c3n2)c(OC)c1" please.
middle bracket

Band assignment needed for "CN[C@@H]1C[C@H]2O[C@@](C)([C@@H]1OC)n1c3ccccc3c3c4c(c5c6ccccc6n2c5c31)C(=O)NC4" please.
low bracket

Band assignment needed for "COc1cc(N2CCN(C)CC2)ccc1Nc1ncc2c(n1)N(C)c1ccccc1C(=O)N2C" please.
low bracket

Band assignment needed for "NC(=O)c1cccc(-c2cc(Nc3ccc(OC(F)(F)F)cc3)ncn2)c1" please.
low bracket

Band assignment needed for "O=C1N/C(=N/c2ccccc2F)S/C1=C\c1ccc(C(=O)O)cc1" please.
low bracket

Band assignment needed for "CCN1CCN(Cc2ccc(Nc3ncc(F)c(-c4cc(F)c5nc(C)n(C(C)C)c5c4)n3)nc2)CC1.CS(=O)(=O)O" please.
high bracket

Band assignment needed for "COC(=N)c1nc2ccc3ncnc(Nc4ccc(OC)cc4F)c3c2s1" please.
low bracket

Band assignment needed for "CNc1cc(Oc2cc(C(=O)Nc3cc(N4CCN(C)CC4)cc(C(F)(F)F)c3)ccc2C)ncn1" please.
high bracket

Band assignment needed for "Cl.O=c1c2cccn2c2ccccc2n1CCCN1CCC(c2ccc(Cl)cc2)CC1" please.
high bracket

Band assignment needed for "O=C(Cc1ccc(-c2ccc(OCCN3CCOCC3)cc2)cn1)NCc1ccccc1" please.
low bracket

Band assignment needed for "COc1cccc2cc(-c3nc([C@H]4CC[C@H](C(=O)O)CC4)n4ncnc(N)c34)[nH]c12" please.
low bracket

Band assignment needed for "Cl.Oc1ccc2c3c1O[C@H]1c4[nH]c5c(c4C[C@@]4(O)[C@@H](C2)N(CC2CC2)CC[C@]314)C[C@@]1(O)[C@H]2Cc3ccc(O)c4c3[C@@]1(CCN2CC1CC1)[C@H]5O4" please.
middle bracket

Band assignment needed for "S=C(NCCCc1c[nH]cn1)NCCCN(Cc1ccc(Cl)c(Cl)c1)c1ccc(Br)cn1" please.
high bracket

Band assignment needed for "CCCS(=O)(=O)c1nc(NC2CC2)cc(-c2ccc3c(ccn3C3CC(C)(C)NC(C)(C)C3)c2)n1" please.
high bracket

Band assignment needed for "CCn1c(=O)c(-c2ccc(-c3cncs3)cc2Cl)cc2cnc(Nc3ccc(N4CCN(C)CC4)cc3)nc21" please.
middle bracket

Band assignment needed for "CCc1cccc(CC)c1NC(=O)c1nn(C)c2c1CCc1cnc(Nc3ccc(C(=O)NC4CCN(C)CC4)cc3OC(F)(F)F)nc1-2" please.
middle bracket
